Reference source for all entries: BindingDB's records for doi:10.1016/s0960-894x(98)00197-8

measured-property: pKi
The quantity pKi is defined as the negative base-10 logarithm of the molar concentration.

Data request: Tell me pKi of CCC(c1cccc(NS(=O)(=O)c2ccc(C#N)cn2)c1)C1C(=O)CC(CC)(c2cccc(NS(=O)(=O)c3ccc(C#N)cn3)c2)OC1=O (configuration not stated) when tested on Human immunodeficiency virus type 1 protease (Human immunodeficiency virus 1).
Data returned: 10.00

Data request: Name the recorded pKi of CCCC1(CCc2ccccc2)CC(=O)C(C(CC)c2cccc(NS(=O)(=O)c3ccc(C#N)cn3)c2)C(=O)O1 (configuration not stated) , assay system Human immunodeficiency virus type 1 protease (Human immunodeficiency virus 1).
Data returned: 10.00
